The reported numbers originate from patent US8389513B2.

- tested_on: BACE1 (Homo sapiens, UniProt P56817)
- Construct: Human HEK293 cells which are stably transfected with a vector expressing a cDNA of the human APP wt gene (APP695); endogenous in cells
- Sequence (P56817 46-501): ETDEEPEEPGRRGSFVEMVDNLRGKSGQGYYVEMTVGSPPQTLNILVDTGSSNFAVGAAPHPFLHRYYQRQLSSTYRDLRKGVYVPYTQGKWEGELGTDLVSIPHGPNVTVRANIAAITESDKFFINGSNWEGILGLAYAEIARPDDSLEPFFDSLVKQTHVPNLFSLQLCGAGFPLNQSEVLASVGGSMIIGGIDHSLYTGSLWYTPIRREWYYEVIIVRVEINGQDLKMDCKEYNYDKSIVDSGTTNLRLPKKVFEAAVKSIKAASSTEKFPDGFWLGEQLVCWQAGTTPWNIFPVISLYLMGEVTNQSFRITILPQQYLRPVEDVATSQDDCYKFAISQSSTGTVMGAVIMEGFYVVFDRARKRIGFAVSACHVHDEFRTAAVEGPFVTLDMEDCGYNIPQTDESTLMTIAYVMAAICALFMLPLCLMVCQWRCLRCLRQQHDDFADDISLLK
- assay_notes: Cellular Aβ-lowering assay (Aβ40 ELISA)
- conditions: HEK293 cells stably expressing human APP695; Aβ40 in culture supernatant; read-out: BACE1 cell act. Aβ40 IC50
pIC50: −log10 of the molar value.
attribute_measured: pIC50

>>> reported("CC1(C)OC(N)=N[C@](C)(c2cc(NC(=O)c3ccc(OCC(F)(F)C(F)F)cn3)ccc2F)C1(F)F [Example 30]")
6.64
>>> reported("CC1(C)OC(N)=N[C@](C)(c2cc(NC(=O)c3cnc(C(F)(F)F)cn3)ccc2F)C1(F)F [Example 35]")
7.40
>>> reported("C[C@]1(c2cc(NC(=O)c3ncccc3Cl)ccc2F)N=C(N)OCC1(F)F [Example 3]")
7.06
>>> reported("C[C@]1(c2cc(NC(=O)c3cnc(Cl)cn3)ccc2F)N=C(N)OCC1(F)F [Example 47]")
6.28
>>> reported("C[C@]1(c2cccc(NC(=O)c3ccc(C#N)cn3)c2)N=C(N)OCC1(F)F [Example 53]")
7.89
>>> reported("C[C@]1(c2cc(NC(=O)C3(C(F)(F)F)CC3)ccc2F)N=C(N)OCC1(F)F [Example 75]")
5.83
>>> reported("CC1(C)OC(N)=N[C@](C)(c2cc(NC(=O)c3ccc(OCC(F)F)cn3)ccc2F)C1(F)F [Example 28]")
6.70
>>> reported("CCn1cc(Cl)c(C(=O)Nc2ccc(F)c([C@@]3(C)N=C(N)OCC3(F)F)c2)n1 [Example 77]")
7.00
>>> reported("CC1(C)OC(N)=N[C@](C)(c2cc(NC(=O)c3ncc(Cl)cn3)ccc2F)C1(F)F [Example 32]")
7.80
>>> reported("C[C@]1(c2cc(NC(=O)c3ccc(OCC(F)F)cn3)ccc2F)N=C(N)OCC1(F)F [Example 45]")
6.40
>>> reported("C[C@]1(c2cc(NC(=O)c3ccc(Cl)cn3)ccc2Cl)N=C(N)OCC1(F)F [Example 50]")
7.77
>>> reported("C[C@]1(c2cc(NC(=O)c3ccc(C#N)c[n+]3[O-])ccc2F)N=C(N)OCC1(F)F [Example 83]")
6.51
>>> reported("CC1(C)OC(N)=N[C@](C)(c2cc(NC(=O)c3ccc(OCC(F)(F)F)cn3)ccc2F)C1(F)F [Example 29]")
6.85

---

- tested_on: BACE1 (Homo sapiens, UniProt P56817)
- Construct: Human HEK293 cells which are stably transfected with a vector expressing a cDNA of the human APP wt gene (APP695); endogenous in cells
- assay_notes: Cellular Aβ-lowering assay (Aβ40 ELISA)
- conditions: HEK293 cells stably expressing human APP695; Aβ40 in culture supernatant; read-out: BACE1 cell act. Aβ40 IC50
Where a name gives a salt, the structure may show the parent alone.
Doc: threshold 500 nM (exclusive). Items with IC50 beneath it return condition met; others return condition not met.

>>> class_name("Cc1cnc(C(=O)Nc2ccc(F)c([C@@]3(C)N=C(N)OC(C)(C)C3(F)F)c2)cn1")
"condition met"
>>> class_name("C[C@]1(c2cc(NC(=O)c3ncc(C(F)(F)F)cn3)ccc2F)N=C(N)OCC1(F)F")
"condition met"
>>> class_name("CC(=O)Nc1ccc(F)c([C@@]2(C)N=C(N)OCC2(F)F)c1")
"condition met"
>>> class_name("C[C@]1(c2cc(NC(=O)c3nn(CC(F)F)cc3Cl)ccc2F)N=C(N)OCC1(F)F")
"condition not met"
>>> class_name("C[C@]1(c2cc(NC(=O)c3ncc(F)cc3F)ccc2F)N=C(N)OCC1(F)F")
"condition met"
>>> class_name("C[C@]1(c2cc(NC(=O)c3coc(CF)n3)ccc2F)N=C(N)OCC1(F)F [Example 79, formate]")
"condition met"
>>> class_name("C[C@]1(c2cc(NC(=O)c3ncc(C(F)(F)F)cc3Cl)ccc2F)N=C(N)OCC1(F)F")
"condition met"
>>> class_name("CC1(C)OC(N)=N[C@](C)(c2cc(NC(=O)c3ccc(OCF)cn3)ccc2F)C1(F)F")
"condition met"
>>> class_name("C[C@]1(c2cc(NC(=O)c3ccc(OCC(F)(F)C(F)(F)F)cn3)ccc2F)N=C(N)OCC1(F)F")
"condition met"
>>> class_name("CC1(C)OC(N)=N[C@](C)(c2cc(NC(=O)c3ccc(C#N)cn3)ccc2F)C1(F)F")
"condition met"
>>> class_name("C[C@]1(c2cc(NC(=O)c3ncc(F)cc3Cl)ccc2F)N=C(N)OCC1(F)F")
"condition met"
>>> class_name("C[C@]1(c2cc(NC(=O)c3ncc(Cl)nc3Cl)ccc2F)N=C(N)OCC1(F)F")
"condition not met"
>>> class_name("CC1(C)OC(N)=N[C@](C)(c2cc(NC(=O)c3ccc(C(F)(F)F)cn3)ccc2F)C1(F)F")
"condition met"
>>> class_name("C[C@]1(c2cc(NC(=O)c3ncccc3F)ccc2F)N=C(N)OCC1(F)F")
"condition met"
>>> class_name("CC1(C)OC(N)=N[C@](C)(c2cc(NC(=O)c3ccc(OCC4CC4)nc3)ccc2F)C1(F)F")
"condition not met"
>>> class_name("C[C@]1(c2cc(NC(=O)/C=C/c3ccco3)ccc2F)N=C(N)OCC1(F)F")
"condition not met"
>>> class_name("CC1(C)OC(N)=N[C@](C)(c2cc(NC(=O)c3ccc(Cl)nn3)ccc2F)C1(F)F")
"condition not met"
>>> class_name("C[C@]1(c2cc(NC(=O)c3ccc(OC(F)F)cn3)ccc2F)N=C(N)OCC1(F)F")
"condition met"
